# test_name: ATG_SREBP_CIS: Attagene CIS-FACTORIAL HepG2 Assay for human Sterol Regulatory Element Binding (SREBP) (AID 2282962)
# assay_conditions: HepG2 Attagene cis-factorial SREBP reporter, mRNA; actives raise or lower the signal
Active and inactive are the calls of the source. The calls were made as follows: active = hit-call score of the fitted dose curve at least 0.9, where 1 is the maximum; inactive = score below 0.9.
# valid calls are active, inactive; nothing else

Examples with answers:
INSERT INTO results (compound, class_assignment) VALUES
  ('S=C1NCCN1', 'inactive'),
  ('CC(=NC#N)N(C)Cc1ccc(Cl)nc1', 'inactive'),
  ('CCCOc1nn(C(=O)NS(=O)(=O)c2ccccc2C(=O)OC)c(=O)n1C', 'inactive'),
  ('O=c1ccc(=O)[nH][nH]1', 'inactive'),
  ('C[Si](Cn1cncn1)(c1ccc(F)cc1)c1ccc(F)cc1', 'active'),
  ('CC1(C(=O)Nc2ccc(O)c(Cl)c2Cl)CCCCC1', 'active'),
  ('O=C(O)c1cc(Oc2ccc(C(F)(F)F)cc2Cl)ccc1[N+](=O)[O-]', 'inactive'),
  ('CCCCSP(=O)(SCCCC)SCCCC', 'active'),
  ('CCOP(=S)(OCC)OC(Cl)C(Cl)(Cl)Cl (centres undefined)', 'active'),
  ('CC(C1CC1)C(O)(Cn1cncn1)c1ccc(Cl)cc1 (centres undefined)', 'inactive');

Short answer needed: outcome of this test for CCC(CC)Nc1c([N+](=O)[O-])cc(C)c(C)c1[N+](=O)[O-] ? inactive

What call does the record list for CCc1cnc(C2=NC(C)(C(C)C)C(=O)N2)c(C(=O)O)c1 (centres undefined) ? inactive

Tell me the assay call for CCCCOC(=O)c1ccccc1C(=O)O please. inactive

Identify the outcome logged in this assay for the compound shown: CCCSP(=O)(OCC)SCCC inactive
